Assay: qHTS of pediatric cancer cell lines to identify multiple opportunities for drug repurposing: Primary screen for TC32 cells (AID 1347089); further: nearly all actives have a fitted effect of over 60% in size
Settings: TC32 Ewing sarcoma viability, CellTiter-Glo luminescence, 48 h; series mostly up to 45.8 µM
Records with an inconclusive call do not appear. Calls of active or inactive are those of the source. The call rests on the fitted dose curve; in most records, active means well fitted cell-killing curve with a large enough effect; inconclusive means small, poorly fitted or top-dose-only effect; inactive means flat fitted curve, though single readings scatter. Peptide text beside a SMILES is read from it.
Hello, when you answer, please use one of the following outcomes: Yes = active, No = inactive

Worked cases, answers included:
COc1c2occc2cc2ccc(=O)oc12 | No
Cc1cc(C2CCCCC2)n(O)c(=O)c1 | Yes
Cc1cccc(CN2CCN(C(c3ccccc3)c3ccc(Cl)cc3)CC2)c1 (stereo unspecified) | No
Nc1nc(Cl)nc2c1ncn2[C@H]1C[C@H](O)[C@@H](CO)O1 | Yes
Cc1cc(Cl)ccc1OCCCC(=O)NO | Yes
O=C(NOCC1CC1)c1ccc(F)c(F)c1Nc1ccc(I)cc1Cl | No
c1cnc2cc3c(cc2n1)C1CNCC3C1 | No
Cc1cc2cc3c(C)cc(=O)oc3c(C)c2o1 | No
Cc1cc(=O)oc2cc(O)ccc12 | No
Nc1ccn([C@@H]2O[C@H](CO)[C@@H](O)C2O)c(=O)n1 (stereo partly specified) | No

Prompt line: Give the logged outcome of this assay for the following compound: `O=Nc1c(-c2c(O)[nH]c3cc(Br)ccc23)[nH]c2ccccc12`
Response line: No

Prompt line: Dear colleague, could you share the recorded outcome for COC(=O)[C@H](Cc1ccccc1)NC(=O)[C@@H](N)CC(=O)O (H-Asp-Phe-OMe) when you have a moment?
Response line: No

Prompt line: Hi team, can someone confirm the assay call for `COCCCN1CCC(NC(=O)c2cc(Cl)c(N)c3c2OCC3)CC1` ?
Response line: No

Prompt line: Each compound tested received a call. Report the one for `C[C@@H](c1ncncc1F)[C@](O)(Cn1cncn1)c1ccc(F)cc1F` .
Response line: No

Prompt line: Tell me the recorded outcome of this test for `O=C(O)c1cccc(-c2noc(-c3ccccc3F)n2)c1` .
Response line: No

Prompt line: What outcome does the record of this test show for `Nc1cc(C(Cl)=C(Cl)Cl)c(S(N)(=O)=O)cc1S(N)(=O)=O` ?
Response line: No

Prompt line: Record request — test call for `CN(C)C(=O)COC(=O)Cc1ccc(OC(=O)c2ccc(N=C(N)N)cc2)cc1`
Response line: No

Prompt line: Check the results log: what was the call for `NNc1nncc2ccccc12` ?
Response line: No

Prompt line: What was the test verdict on `Cc1cc(O)c2c(c1)C(=O)c1cc(O)cc(O)c1C2=O` ?
Response line: No

Prompt line: Look up the recorded call for Cc1c(OCC(F)(F)F)ccnc1CS(=O)c1nc2ccccc2[nH]1 (stereo unspecified) in this test.
Response line: No

Prompt line: Could you please tell me the result logged for `CC1=C(C(=O)O)N2C(=O)[C@@H](NC(=O)[C@H](N)C3=CCC=CC3)[C@H]2SC1` in this assay?
Response line: No

Prompt line: I'd appreciate the recorded outcome for `CCC[C@@H]1C[C@@H](C(=O)N[C@@H]([C@H]2O[C@H](SC)[C@H](O)[C@@H](O)[C@H]2O)[C@@H](C)O)N(C)C1` from this test.
Response line: No

----------
Assay: Quantitative High-Throughput drug screen in 47 multiple myeloma cell lines against the NCATS MIPE library collection: Karpas620_DSMZ cell viability assay (AID 1918959); further: nearly all actives have a fitted effect of over 30% in size
Settings: Karpas620 myeloma viability, CellTiter-Glo ATP luminescence, 48 h; series mostly up to 45.8 µM
Inconclusive results are not listed. Activity calls are given as the source filed them. Calls follow the shape of the dose curve; as a rule, active = well fitted cell-killing curve with a large enough effect; inconclusive = small, poorly fitted or top-dose-only effect, or effect the other way; inactive = no such curve, though single readings can be large or run the other way.
Allowed answers: active, inactive

O=c1cc(N2CCOCC2)oc2c(-c3ccccc3)cccc12 | inactive
Cc1cccc(-c2[nH]ncc2-c2ccc3ncccc3n2)n1 | inactive
Cc1cc2cc3c(C)cc(=O)oc3c(C)c2o1 | active

Query molecule follows.
Prompt line: Lab log entry: `Nc1nc(N)c(N=O)c(OCC2CCCCC2)n1` — outcome as called in the assay?
Response line: active
